System: HCC-2998 colon
Assay: NCI tumour cell line growth inhibition, 48 h
Parameter measured: TGI (µM)
Numbers only, in µM.

See these solved cases before continuing.
CC(O)c1cc2c(s1)C(=O)c1ccsc1C2=O (stereo not given); 0.576
Nc1ccc2c(=O)cc(-c3cccs3)[nH]c2n1; 27.5

Look up TGI for the entries below, preserving their order.
1. Cc1ccc2c(-c3ccnc(Nc4ccccc4)n3)c(-c3ccc(F)cc3)nn2n1
2. CC1=CC[C@H](C(C)C)C(C(O)[C@@H](C)O[Si](c2ccccc2)(c2ccccc2)C(C)(C)C)C1=O (stereo not given in full)

OUTPUT:
1: 22.6; 2: 29

---

System: HOP-62 NSCLC
Test: NCI tumour cell line growth inhibition, 48 h
Parameter measured: TGI

See these solved cases before continuing.
CCOC(=O)Cc1ccc2c(c1O)C(=O)c1c(ccc(CC(=O)OCC)c1O)C2=O; > 100 µM
O=C(O)C1CCCCC1C(=O)Nn1cnnc1 (stereo unspecified); > 100 µM
CC(=Nc1ccccc1)C1=C(O)C(Cc2ccc(O)cc2)NC1=O (stereo unspecified); 2.46 µM
CCOC(=O)N1c2c(ccn2C)-c2ccn(C)c2N1C(=O)OCC; > 100 µM
COc1cccc2c1CCc1c(-c3ccc(F)cc3)cc(-c3ccc4ccccc4n3)nc1-2; > 100 µM
Cc1c(S(=O)(=O)O)ccc(N=Nc2c(O)c(C(=O)O)cc3ccccc23)c1Cl; > 100 µM
CN=c1c2c(c3[nH]c4ccccc4c4cnc1c34)NCCC2=O; > 10 µM
Cc1ccc2c(-c3ccnc(Nc4ccccc4)n3)c(-c3ccc(F)cc3)nn2n1; > 25 µM

Look up TGI for the entries below, preserving their order.
1. CC1C/C(=C\c2ccc(OC(=O)C(C)(C)C)cc2)C(=O)/C(=C/c2ccc(OC(=O)C(C)(C)C)cc2)C1 (stereo unspecified)
2. c1ccc(N=C(Nc2ccccc2)N2CCCC2)cc1
3. CCC(C(=O)C(=O)C(CC)P1(=O)OC(C)(C)CN1C(C)(C)C)P1(=O)OC(C)(C)CN1C(C)(C)C (stereo unspecified)
4. Cn1c(=O)n2n(c1=O)C(S(=O)(=O)c1ccccc1)C2 (stereo unspecified)
5. Cc1cc(=O)oc2c(C)c(O)ccc12
6. Cc1ccc(/C(O)=C/c2nc3c(nc2NC24CC5CC(CC(C5)C2)C4)c(=O)oc2ccccc23)cc1
7. CCCCCCCCCCCCN1[C@H]2CCC[C@H]2C(O)[C@@H]2CCC[C@@H]21 (stereo partly specified)
8. COc1cc2cc3c4cc(OC)c(OC)cc4cc[n+]3cc2cc1OC

OUTPUT:
> 100 µM
> 100 µM
> 100 µM
> 100 µM
> 100 µM
> 100 µM
> 100 µM
> 100 µM

---

Answer each item with its documented TGI.
System: MOLT-4 leukemia
Assay: NCI tumour cell line growth inhibition, 48 h

O=C1c2ccccc2-c2oc(=O)c3ccccc3c21; > 100 µM
CCCCN1CN2C(=O)C(C(=O)OCC)C(=O)c3sc4nc(SC)nc1c4c32 (stereo unspecified); 66.3 µM
Cn1c(=O)n2n(c1=O)C(S(=O)(=O)c1ccccc1)C2 (stereo unspecified); > 100 µM
CC1=C[C@]2(O)C(=O)[C@H](C)C[C@H]3[C@@H](CC[C@@](C)(O)/C=C\2C1=O)C3(C)C; > 62 µM
Cc1ccc(NC2=C(Cl)C(=O)N(Cc3ccc(Cl)cc3)C2=O)cc1O; > 100 µM
Nc1c2c(c(O)c3c1=C(CO)C=N3)=NCCS2; 0.541 µM

Look up TGI for the entries below, preserving their order.
1. COc1ccccc1C(O)(c1ccccc1)C(O)(c1ccccc1)c1ccccc1OC (stereo unspecified)
2. N#Cc1ccc2c(c1)C(=O)c1c-2n(CCCCl)c(=O)c2cc([N+](=O)[O-])ccc12

OUTPUT:
["> 100 µM", "5.26 µM"]

Look up TGI for the entries below, preserving their order.
1. COC(=O)c1cc2c3ccccc3n3c(=O)c4cc5ccccc5nc4c(n1)c23
2. C=C(C#N)C1OCC2OC(C)(C)OC21 (stereo unspecified)
3. Cc1ccc(N2C(=O)C=C(C3=C(O)C(=O)N(c4ccc(C)cc4)C3=O)C2=O)cc1
4. Cc1nc(C(N)=S)sc1C(=O)CC(=O)C(=O)Nc1ccccc1[N+](=O)[O-]
5. CCN(CC)CCCNC(=O)C1COc2cc(-c3cc(=O)c4ccccc4o3)ccc2O1 (stereo unspecified)

OUTPUT:
1: > 100 µM; 2: 43.3 µM; 3: > 100 µM; 4: > 100 µM; 5: > 100 µM
